Tested on: SF539 (Glioblastoma)
Test: combination Emax (second highest fraction inhibited in the dose matrix, 72 h); higher = more inhibition; extreme values may be limits of the assay
measurementKind: combination Emax
Format: numeric value only, no unit, no commentary.

Cc1c2c(nn1C)CSCc1cc(n(C)n1)CSc1cc(c3ccccc3c1)OCCCc1c(C(=O)O)n(C)c3c-2c(Cl)ccc13 [AZD5991] + C[C@@H]1COCCN1C2=NC(=NC(=C2)C3(CC3)[S@](=N)(=O)C)C4=C5C=CNC5=NC=C4 [AZD6738] (first compound max 1 µM, 7x7, partner max 10 µM)    0.919

Suppose we examine the compound Cc1c2c(nn1C)CSCc1cc(n(C)n1)CSc1cc(c3ccccc3c1)OCCCc1c(C(=O)O)n(C)c3c-2c(Cl)ccc13 [AZD5991] + CC1(C)CCC(CN2CCN(c3ccc(C(=O)NS(=O)(=O)c4ccc(NCC5CCOCC5)c([N+](=O)[O-])c4)c(Oc4cnc5[nH]ccc5c4)c3)CC2)=C(c2ccc(Cl)cc2)C1 [Venetoclax] (first compound max 1 µM, 7x7, partner max 1 µM) ; what combination Emax value has been reported?
0.544

----------
System: RERF-LC-Sq1 (Squamous Cell Lung Carcinoma)
Assay: combination Emax (second highest fraction inhibited in the dose matrix, 72 h); higher = more inhibition; extreme values may be limits of the assay
measurementKind: combination Emax
Give only the figure.

CN(C)CCCOc1ccc(-c2ccc3ncc4c(c3c2)n(C2CCOCC2)c(=O)n4C)cn1 [AZD0156] + C[C@@H]1COCCN1C2=NC(=NC(=C2)C3(CC3)[S@](=N)(=O)C)C4=C5C=CNC5=NC=C4 [AZD6738] (first compound max 1 µM, 7x7, partner max 10 µM)    0.843
COc1nnc2ccc(N3CCC(c4ccc(OCCN5CCN(C)C(=O)[C@H]5C)cc4)CC3)nn12 [AZD5153] + CN(CC[C@H](CSC1=CC=CC=C1)NC2=C(C=C(C=C2)S(=O)(=O)NC(=O)C3=CC=C(C=C3)N4CCC(CC4)[C@H](C5=CC=CC=C5C6=CC=C(C=C6)Cl)O)S(=O)(=O)C(F)(F)F)CCO [AZD4320] (first compound max 1 µM, 7x7, partner max 1 µM)    0.706
NC1(C(=O)N[C@@H](CCO)c2ccc(Cl)cc2)CCN(c2ncnc3[nH]ccc23)CC1 [Capivasertib] + CC(C)n1c(=O)n(C)c2cnc3cc(F)c(-c4ccc(OCCCN5CCCCC5)nc4)cc3c21 [AZD1390] (first compound max 10 µM, 7x7, partner max 0.3 µM)    0.841
CC(=O)c1c(C)c2cnc(Nc3ccc(N4CCNCC4)cn3)nc2n(C2CCCC2)c1=O [Palbociclib] + Cc1c2c(nn1C)CSCc1cc(n(C)n1)CSc1cc(c3ccccc3c1)OCCCc1c(C(=O)O)n(C)c3c-2c(Cl)ccc13 [AZD5991] (first compound max 10 µM, 7x7, partner max 1 µM)    0.594
CCN(CCO)CCCOc1ccc2c(Nc3cc(CC(=O)Nc4cccc(F)c4)[nH]n3)ncnc2c1 [AZD2811] + C[C@@H]1COCCN1C2=NC(=NC(=C2)C3(CC3)[S@](=N)(=O)C)C4=C5C=CNC5=NC=C4 [AZD6738] (first compound max 1 µM, 7x7, partner max 10 µM)    0.791
CCN(CCO)CCCOc1ccc2c(Nc3cc(CC(=O)Nc4cccc(F)c4)[nH]n3)ncnc2c1 [AZD2811] + C=CCn1c(=O)c2cnc(Nc3ccc(N4CCN(C)CC4)cc3)nc2n1-c1cccc(C(C)(C)O)n1 [AZD1775] (first compound max 1 µM, partner max 1 µM)    0.68
CC1(C)CCC(CN2CCN(c3ccc(C(=O)NS(=O)(=O)c4ccc(NCC5CCOCC5)c([N+](=O)[O-])c4)c(Oc4cnc5[nH]ccc5c4)c3)CC2)=C(c2ccc(Cl)cc2)C1 [Venetoclax] + Cc1cc2ncnn2cc1Nc1ncc2c(n1)n(C1CCOCC1)c(=O)n2C [AZD7648] (first compound max 1 µM, 7x7, partner max 10 µM)    0.229
Cc1cc2ncnn2cc1Nc1ncc2c(n1)n(C1CCOCC1)c(=O)n2C [AZD7648] + CN(C)CCCOc1ccc(-c2ccc3ncc4c(c3c2)n(C2CCOCC2)c(=O)n4C)cn1 [AZD0156] (first compound max 10 µM, 7x7, partner max 1 µM)    0.197

Param item = NC1(C(=O)N[C@@H](CCO)c2ccc(Cl)cc2)CCN(c2ncnc3[nH]ccc23)CC1 [Capivasertib] + CC(=O)c1c(C)c2cnc(Nc3ccc(N4CCNCC4)cn3)nc2n(C2CCCC2)c1=O [Palbociclib] (first compound max 10 µM, 7x7, partner max 10 µM) ; retrieve measured combination Emax.
0.873

// query: COc1cccc(OCCCN)c1-c1cc(Nc2cnc(C#N)cn2)n[nH]1 [Prexasertib] + CN(C)CCCOc1ccc(-c2ccc3ncc4c(c3c2)n(C2CCOCC2)c(=O)n4C)cn1 [AZD0156] (first compound max 1 µM, 7x7, partner max 1 µM)
0.864

Also need CCc1c2c(nc3ccc(O)cc13)-c1cc3c(c(=O)n1C2)COC(=O)[C@]3(O)CC [SN-38] + CN(C)CCCOc1ccc(-c2ccc3ncc4c(c3c2)n(C2CCOCC2)c(=O)n4C)cn1 [AZD0156] (first compound max 0.3 µM, 7x7, partner max 1 µM) , thanks.
0.743

What do we get for CN(CCO)CC[C@H](CSc1ccccc1)Nc1ccc(S(=O)(=O)NC(=O)c2ccc(N3CCC([C@@H](O)c4ccccc4-c4ccc(Cl)cc4)CC3)cc2)cc1S(=O)(=O)C(F)(F)F [AZD4320] + CN(C)CCCOc1ccc(-c2ccc3ncc4c(c3c2)n(C2CCOCC2)c(=O)n4C)cn1 [AZD0156] (first compound max 1 µM, 7x7, partner max 1 µM) ?
0.194

Also, Cc1c2c(nn1C)CSCc1cc(n(C)n1)CSc1cc(c3ccccc3c1)OCCCc1c(C(=O)O)n(C)c3c-2c(Cl)ccc13 [AZD5991] + Cn1cnc2c(F)c(Nc3ccc(Br)cc3Cl)c(C(=O)NOCCO)cc21 [Selumetinib] (first compound max 1 µM, 7x7, partner max 3 µM) please.
0.479

Would you kindly repeat that for CN(CCO)CC[C@H](CSc1ccccc1)Nc1ccc(S(=O)(=O)NC(=O)c2ccc(N3CCC([C@@H](O)c4ccccc4-c4ccc(Cl)cc4)CC3)cc2)cc1S(=O)(=O)C(F)(F)F [AZD4320] + C=CCn1c(=O)c2cnc(Nc3ccc(N4CCN(C)CC4)cc3)nc2n1-c1cccc(C(C)(C)O)n1 [AZD1775] (first compound max 1 µM, partner max 1 µM) ?
0.683
